tested on: Caco-2 cell; assay: Stability in the Caco-2 cell system; assay type: in vitro ADME, human; conditions: 4-hour incubation in Caco-2 Transwell; relative to initial conc. = 100.00 (500 μM)
PROPERTY_LABEL: Conc. after 4-hour in Caco-2 cells

Please review the entries below; each comes with its answer.
COMPOUND	Conc. after 4-hour in Caco-2 cells
CCCCOC(=O)N[C@@H](CC(N)=O)C(=O)N[C@@H](C)C(=O)N1CCC[C@H]1C(=O)N[C@H](C(=O)N[C@@H](CO)C(=O)N[C@H](C(=O)N1CCC[C@H]1C(=O)N[C@@H](CCC(N)=O)C(N)=O)[C@@H](C)CC)C(C)C [BMEC-NAP0503, nBu-OCO-NAPVSIPQ-NH2]	85.89
CCCCC(CC)COC(=O)N[C@@H](CC(N)=O)C(=O)N[C@@H](C)C(=O)N1CCC[C@H]1C(=O)N[C@H](C(=O)N[C@@H](CO)C(=O)N[C@H](C(=O)N1CCC[C@H]1C(=O)N[C@@H](CCC(N)=O)C(=O)O)[C@@H](C)CC)C(C)C (some centres unmarked) [BMEC-NAP0402, iOct-OCO-NAPVSIPQ-OH]	18.92
CC[C@H](C)[C@H](NC(=O)[C@H](CO)NC(=O)[C@@H](NC(=O)[C@@H]1CCCN1C(=O)[C@H](C)NC(=O)[C@H](CC(N)=O)NC(=O)c1ccc(-c2ccccc2)cc1)C(C)C)C(=O)N1CCC[C@H]1C(=O)N[C@@H](CCC(N)=O)C(=O)O [BMEC-NAP0703, 4-Phenylbenzoyl-NAPVSIPQ-OH]	88.79
CC[C@H](C)[C@H](NC(=O)[C@H](CO)NC(=O)[C@@H](NC(=O)[C@@H]1CCCN1C(=O)[C@H](C)NC(=O)[C@H](CC(N)=O)NC(=O)c1ccc2c(c1)C(=O)OC21c2ccc(O)cc2Oc2cc(O)ccc21)C(C)C)C(=O)N1CCC[C@H]1C(=O)N[C@@H](CCC(N)=O)C(=O)O [BMEC-NAP9901, 5(6)FAM-NAPVSIPQ-OH]	81.63

Your task in this section: give Conc. after 4-hour in Caco-2 cells for each listed record.
1. CC[C@H](C)[C@H](NC(=O)[C@H](CO)NC(=O)[C@@H](NC(=O)[C@@H]1CCCN1C(=O)[C@H](C)NC(=O)[C@@H](N)CC(N)=O)C(C)C)C(=O)N1CCC[C@H]1C(=O)N[C@@H](CCC(N)=O)C(=O)O [BMEC-NAP, H-NAPVSIPQ-OH, reference compound]
2. CC[C@H](C)[C@H](NC(=O)[C@H](CO)NC(=O)[C@@H](NC(=O)[C@@H]1CCCN1C(=O)[C@H](C)NC(=O)[C@H](CC(N)=O)NC(=O)OCC(C)C)C(C)C)C(=O)N1CCC[C@H]1C(=O)N[C@@H](CCC(N)=O)C(=O)O [BMEC-NAP0401, iBu-OCO-NAPVSIPQ-OH]
3. CCCCC(CC)COC(=O)N[C@@H](CC(N)=O)C(=O)N[C@@H](C)C(=O)N1CCC[C@H]1C(=O)N[C@H](C(=O)N[C@@H](CO)C(=O)N[C@H](C(=O)N1CCC[C@H]1C(=O)N[C@@H](CCC(N)=O)C(N)=O)[C@@H](C)CC)C(C)C (some centres unmarked) [BMEC-NAP0502, iOct-OCO-NAPVSIPQ-NH2]
4. CCCCCCOC(=O)N[C@@H](CC(N)=O)C(=O)N[C@@H](C)C(=O)N1CCC[C@H]1C(=O)N[C@H](C(=O)N[C@@H](CO)C(=O)N[C@H](C(=O)N1CCC[C@H]1C(=O)N[C@@H](CCC(N)=O)C(=O)O)[C@@H](C)CC)C(C)C [BMEC-NAP0404, nHex-OCO-NAPVSIPQ-OH]
5. CC[C@H](C)[C@H](NC(=O)[C@H](CO)NC(=O)[C@@H](NC(=O)[C@@H]1CCCN1C(=O)[C@H](C)NC(=O)[C@H](CC(N)=O)NC(=O)c1cccc2ccccc12)C(C)C)C(=O)N1CCC[C@H]1C(=O)N[C@@H](CCC(N)=O)C(N)=O [BMEC-NAP0802, α-Naphthoyl-NAPVSIPQ-NH2]
6. CC[C@H](C)[C@H](NC(=O)[C@H](CO)NC(=O)[C@@H](NC(=O)[C@@H]1CCCN1C(=O)[C@H](C)NC(=O)[C@H](CC(N)=O)NC(=O)c1cccs1)C(C)C)C(=O)N1CCC[C@H]1C(=O)N[C@@H](CCC(N)=O)C(N)=O [BMEC-NAP0804, 2-Thiophenecarbonyl-NAPVSIPQ-NH2]
7. CC[C@H](C)[C@H](NC(=O)[C@H](CO)NC(=O)[C@@H](NC(=O)[C@@H]1CCCN1C(=O)[C@H](C)NC(=O)[C@H](CC(N)=O)NC(=O)OCc1ccccc1)C(C)C)C(=O)N1CCC[C@H]1C(=O)N[C@@H](CCC(N)=O)C(N)=O [BMEC-NAP0805, Cbz-NAPVSIPQ-NH2]
8. CCCCCCCCOC(=O)N[C@@H](CC(N)=O)C(=O)N[C@@H](C)C(=O)N1CCC[C@H]1C(=O)N[C@H](C(=O)N[C@@H](CO)C(=O)N[C@H](C(=O)N1CCC[C@H]1C(=O)N[C@@H](CCC(N)=O)C(=O)O)[C@@H](C)CC)C(C)C [BMEC-NAP0405, nOct-OCO-NAPVSIPQ-OH]

Response given:
[42.49, 52.63, 82.37, 29.87, 88.68, 92.09, 89.54, 17.11]

Your task in this section: give Conc. after 4-hour in Caco-2 cells for each listed record.
1. CC[C@H](C)[C@H](NC(=O)[C@H](CO)NC(=O)[C@@H](NC(=O)[C@@H]1CCCN1C(=O)[C@H](C)NC(=O)[C@H](CC(N)=O)NC(=O)c1ccccc1)C(C)C)C(=O)N1CCC[C@H]1C(=O)N[C@@H](CCC(N)=O)C(N)=O [BMEC-NAP0801, Benzoyl-NAPVSIPQ-NH2]
2. CC[C@H](C)[C@H](NC(=O)[C@H](CO)NC(=O)[C@@H](NC(=O)[C@@H]1CCCN1C(=O)[C@H](C)NC(=O)[C@H](CC(N)=O)NC(=O)OCC1c2ccccc2-c2ccccc21)C(C)C)C(=O)N1CCC[C@H]1C(=O)N[C@@H](CCC(N)=O)C(=O)O [BMEC-NAP0706, Fmoc-NAPVSIPQ-OH]

Response given:
[92.58, 67.14]
